Test system: UACC-257 melanoma
procedure-details: NCI tumour cell line growth inhibition, 48 h
A collection of molecules and their measured TGI
property-name: TGI

>>> value_observed("Cc1cn2c(/C=C3\\C(=O)Nc4ccc(O)cc43)c(-c3ccc(Cl)cc3)nc2s1")
"> 100 µM"
>>> value_observed("CC#C[P+](c1ccccc1)(c1ccccc1)c1ccccc1")
"9.59 µM"
>>> value_observed("COc1ccc(C(OC(C)=O)C2C(=C(C#N)C#N)c3ccccc3C2=C(C#N)C#N)cc1 (stereo not given)")
"> 100 µM"
>>> value_observed("O=C(CSc1nnc(-c2ccc(N=Cc3ccc(Cl)cc3)cc2)o1)Nc1ccc(Cl)cc1")
"> 100 µM"
>>> value_observed("CCc1nc2ccc(N=NN(C)C)cc2[nH]1")
"> 100 µM"
>>> value_observed("O=C(CC(=O)c1ccccc1)CC(O)(c1ccccc1)c1ccccc1")
"29.7 µM"
>>> value_observed("CCCCn1c(C)c2c(c1C)C(=O)N(CC(O)CN1CCc3ccccc3C1)C2=O (stereo not given)")
"> 100 µM"
>>> value_observed("O=c1c2c(-c3ccccc3)onc2n(-c2ccccc2)c(=O)n1-c1ccccc1")
"53 µM"
>>> value_observed("Cc1c(CNc2ccc(C(=O)NC(CC(=O)O)C(=O)O)cc2)ccc2nc(N)nc(N)c12 (stereo not given)")
"> 1000 µM"
>>> value_observed("CC1(C)OC2C(O)CN3CCS[C@H]3C2O1 (stereo not given in full)")
"> 100 µM"

----------
Test system: CCRF-CEM leukemia
procedure-details: NCI tumour cell line growth inhibition, 48 h
A collection of molecules and their measured TGI
property-name: TGI

>>> value_observed("O=C(NCCCN(CCCCN(CCCNC(=O)C(F)(F)F)CCCc1ccccc1)CCCc1ccccc1)C(F)(F)F")
"18.8 µM"
>>> value_observed("C=CC(=O)N1CCC(C2CCNc3c(C(N)=O)c(-c4ccc(Oc5ccccc5)cc4)nn32)CC1 (configuration not stated)")
"> 100 µM"
>>> value_observed("Oc1cc(O)c2c(c1)OC(c1ccc(O)c(O)c1)C(OC1(c3cc(O)c(O)c(O)c3)Oc3cc(O)cc(O)c3C(O)C1O)C2 (configuration not stated)")
"43.7 µM"
>>> value_observed("CC(C)(C)c1cc(C(=O)/C=C/C=C/c2ccccc2)cc(C(C)(C)C)c1O")
"15.5 µM"
>>> value_observed("Nc1nc(N)c(N=Nc2ccc([As](=O)(O)O)cc2)c(=O)[nH]1")
"> 100 µM"
>>> value_observed("Nc1nccc2c1ccn2-c1ccc(NC(=O)c2ccc(N3CCOCC3)c(C(F)(F)F)c2)cc1")
"> 100 µM"
>>> value_observed("Cc1cccc(C(C)C)c1NC(=O)CC1Sc2ccccc2NC1=O (configuration not stated)")
"> 100 µM"
>>> value_observed("CSc1ncnc2c1cnn2CCCCO")
"> 100 µM"
>>> value_observed("CSc1nncc2[nH]c(C)nc12")
"> 100 µM"
>>> value_observed("CC(=O)OC1O[C@@H](C(C)(C)O)CC[C@@H]1[C@H]1CC[C@@]2(C)C3=C(CC[C@]12C)[C@@]1(C)C[C@@H](OC(=O)CC(C)(O)CC(=O)O)[C@H](OC(C)=O)C(C)(C)C1CC3 (some centres not stated)")
"41.6 µM"
>>> value_observed("CCOC(=O)C(C)(C)Oc1ccc2c(C)c(-c3ccc(Cl)cc3)c(=O)oc2c1")
"> 100 µM"
>>> value_observed("CC1(C)OCCn2c1nc1c(N3CCOCC3)nc(-c3cnc(N)nc3)nc12")
"> 100 µM"

FYI, the data here is from PubChem BioAssay (NCI).
